These data points were gathered from ChEMBL document CHEMBL1201862.

test system: SK-MEL-2; test: NCI tumour cell line growth inhibition, 48 h
Active and inactive are the calls of the source. No stated cut-off is given here; in the data, active = GI50 up to about 1.1 µM and inactive = higher.
quantityName: GI50

Give SK-MEL-2 GI50 for Cc1cn(C2CC(ON3C(=O)c4ccccc4C3=O)C(CO)O2)c(=O)[nH]c1=O (stereo unspecified)
> 10 µM (inactive)

Give SK-MEL-2 GI50 for "Cc1nc(=O)[nH]c2s/c(=N/C3CCCCC3)n(C3CCCCC3)c(=O)c12"
> 100 µM (inactive)

Give SK-MEL-2 GI50 for C=C(C)C1CC/C(C)=C/CCC2(C)OC2CC/C(CO)=C\C1O (stereo unspecified)
> 100 µM (inactive)

Give SK-MEL-2 GI50 for "O=c1c(C(c2ccc(C(c3c(O)oc4cc(O)ccc4c3=O)c3c(O)oc4cc(O)ccc4c3=O)cc2)c2c(O)oc3cc(O)ccc3c2=O)c(O)oc2cc(O)ccc12"
> 100 µM (inactive)

Give SK-MEL-2 GI50 for "Cc1ccnc(Nc2[nH]c(C(=O)c3ccc(Cl)cc3)c(N)c2C(=S)Nc2ccccc2)c1"
8.59 µM (inactive)

Give SK-MEL-2 GI50 for "C=C(C(=O)O)[C@@H]1C[C@@H]2O[C@H]1[C@@H](O)[C@@H](C)CCCC(C)=CCC[C@@]2(C)O"
> 100 µM (inactive)

Give SK-MEL-2 GI50 for "Cc1ncc(CO)c(CN)c1O"
> 100 µM (inactive)

Give SK-MEL-2 GI50 for O=C1C2C=CC(C2)C(c2ccc(O)cc2)N1O (stereo unspecified)
> 100 µM (inactive)

Give SK-MEL-2 GI50 for "CC(C)(CN)SCc1ccccc1"
> 100 µM (inactive)

Give SK-MEL-2 GI50 for "CCCCCCCCCCCCNC(C)=O"
14.8 µM (inactive)

Give SK-MEL-2 GI50 for "CC(C)(CO)CNc1nc(N)nc(Cl)c1C=O"
16.8 µM (inactive)

Give SK-MEL-2 GI50 for "COc1ccc(C=O)cc1OS(=O)(=O)C(F)(F)C(F)(F)C(F)(F)C(F)(F)F"
17.1 µM (inactive)

Give SK-MEL-2 GI50 for "COc1ccc2c(c1)-c1nc(=S)n(CCCN(C)C)c3ccc([N+](=O)[O-])c(c13)N2"
14.7 µM (inactive)

Give SK-MEL-2 GI50 for "Cc1c(N2C(=O)/C(=C/C=C/c3ccccc3)N=C2c2ccccc2)c(=O)n(-c2ccccc2)n1C"
21.8 µM (inactive)

Give SK-MEL-2 GI50 for "Cc1ccccc1-c1c(N)nc(N)nc1C(=O)Nc1nccs1"
> 100 µM (inactive)

Give SK-MEL-2 GI50 for "Cc1ccc(OC(=O)N2C/C(=C\c3ccccc3)C(=O)/C(=C/c3ccccc3)C2)cc1"
42.6 µM (inactive)

Give SK-MEL-2 GI50 for "COC(=O)CCCCC/C(=C\C(=O)C(Cl)(Cl)Cl)OC"
22.2 µM (inactive)

Give SK-MEL-2 GI50 for "CC(=O)n1nc(-c2ccccc2)n(/N=C/c2ccc([N+](=O)[O-])cc2)c1=O"
> 100 µM (inactive)

Give SK-MEL-2 GI50 for "COc1ccc(C(=O)CC(=O)C(=O)Nc2ccc(C)c(C)c2)cc1"
> 100 µM (inactive)

Give SK-MEL-2 GI50 for "CSc1ccc2c(cc1=O)[C@@H](NC(=O)c1ccc([N+](=O)[O-])cc1)CCc1cc(O)c(O)c(O)c1-2"
> 100 µM (inactive)

Give SK-MEL-2 GI50 for c1ccc(C2=NOC3(c4ccccc4)SC4CCCCC4CN23)cc1 (stereo unspecified)
31.3 µM (inactive)

Give SK-MEL-2 GI50 for CC(C#N)(NO)C(C)(C#N)NO (stereo unspecified)
> 100 µM (inactive)

Give SK-MEL-2 GI50 for O=C(c1ccccc1)C1CCCCN1C(=O)c1ccccc1 (stereo unspecified)
> 100 µM (inactive)

Give SK-MEL-2 GI50 for "O=C1C(Cl)=CC2(C=C1Cl)CCNC1=C2C(=O)c2nc[nH]c2C1=O"
17.3 µM (inactive)

Give SK-MEL-2 GI50 for CC(=O)C1C(=O)C(=O)N(c2cccc([N+](=O)[O-])c2)C1=O (stereo unspecified)
> 100 µM (inactive)

Give SK-MEL-2 GI50 for "CN(C)CCOc1cccc2c1C(=O)c1ccccc1C2=O"
14.2 µM (inactive)

Give SK-MEL-2 GI50 for "CCN/C(=N\Nc1ccc([N+](=O)[O-])cc1)P(=O)(OC(C)C)OC(C)C"
> 100 µM (inactive)

Give SK-MEL-2 GI50 for "CC(C)=CCC[C@@H](C)C1=CC(=O)C(C)=C(O)C1=O"
9.64 µM (inactive)

Give SK-MEL-2 GI50 for "CCOC(=O)c1cnc2sc3ccc4ccccc4c3n2c1=O"
41.5 µM (inactive)

Give SK-MEL-2 GI50 for Cc1c(C(=O)CC(=O)C(=O)NC2C3CC4CC(C3)CC2C4)[n+]([O-])c2ccccc2[n+]1[O-] (stereo unspecified)
> 100 µM (inactive)

Give SK-MEL-2 GI50 for CC(=O)OCC1OC(N2C(=O)CC(N)=Nc3ccccc32)C(OC(C)=O)C(OC(C)=O)C1OC(C)=O (stereo unspecified)
48.4 µM (inactive)

Give SK-MEL-2 GI50 for Clc1ccc(C2=CC(c3ccccc3)N3C(=N[C@H]4CCCC[C@@H]43)N2)cc1 (stereo partly specified)
13.6 µM (inactive)

Give SK-MEL-2 GI50 for C=C[C@@]1(C)CC2CC[C@]3(C)C(C)=CC(=O)CC3[C@]2(C)CC1O (stereo partly specified)
> 100 µM (inactive)

Give SK-MEL-2 GI50 for "[O-][Cl+3]([O-])([O-])[O-].[O-][Cl+3]([O-])([O-])[O-].c1ccn2c(N3CCCC3)[n+]3c4ccccc4n4c(N5CCCC5)[n+]5ccccc5c4c3c2c1"
39.2 µM (inactive)

Give SK-MEL-2 GI50 for COC(=O)C12OC3CO[Si](C(C)C)(C(C)C)O[Si](C(C)C)(C(C)C)OC3C1Oc1nc(=O)ccn12 (stereo unspecified)
17.1 µM (inactive)

Give SK-MEL-2 GI50 for CCN(CC)CCCC(C)Nc1ccnc(/C=C/c2ccc(Cl)cc2)c1 (stereo unspecified)
2.11 µM (inactive)
